# Protocol text: NCI Yeast Anticancer Drug Screen. Data for the mlh1 rad18 strain (AID 175)
# Run parameters: S. cerevisiae mlh1 rad18 strain growth inhibition; at 50.0 µM; hits give high values
This is part of a sample that, as a whole, favours compounds with a hit. Of some 79,000 tested, about 15% had one in any assay.
Recorded growth inhibition by entry

- Smi: "Nc1ncc([N+](=O)[O-])c(=O)[nH]1"
  growth inhibition (%): 26.9
- Smi: "CCN(CC)CCOc1ccc(OC)cc1"
  growth inhibition (%): -0.8
- Smi: "CC(C)=C(CO)CCC(C)C"
  growth inhibition (%): -0.05
- Smi: "COC(=O)CSSCc1ccccc1"
  growth inhibition (%): 6.35
- Smi: "[N-]=[N+]=Nc1ccc2[nH]c3ccccc3c(=O)c2c1"
  growth inhibition (%): 36.7
- Smi: "CCC(CC)c1nc2c([nH]1)c(=O)n(C)c(=O)n2C"
  growth inhibition (%): -10.3
- Smi: "O=S(=O)(N/N=C/c1ccc(Cl)c(Cl)c1)c1ccccc1"
  growth inhibition (%): 32.2
- Smi: "c1ccc(-c2cc[n+]3c4c2ccc2c(-c5ccccc5)cc[n+](c24)CC3)cc1"
  growth inhibition (%): 87.2
- Smi: "O=C(Nc1nc2ncn(CCI)c2c(=O)[nH]1)c1ccccc1"
  growth inhibition (%): -14.3
- Smi: "NCCS/C=C\\C(=O)OCc1ccc(Br)cc1"
  growth inhibition (%): 54.1
- Smi: "CC(=O)C(/C=N\\N=C(/C)c1cn[nH]c1C)=C(/C)O"
  growth inhibition (%): -18.6
- Smi: "COc1c(NC(=O)c2c(Br)c(Br)c(Br)c(Br)c2C(=O)O)cccc1[N+](=O)[O-]"
  growth inhibition (%): 17.1

====

# Protocol text: NCI Yeast Anticancer Drug Screen. Data for the sgs1 mgt1 strain (AID 161);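 also: 0% = growth of cultures given vehicle only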
# Run parameters: S. cerevisiae sgs1 mgt1 strain, at 50.0 µM
The panel holds about 79,000 compounds, 15% with a hit somewhere; the sample as a whole holds those more often. Activity calls are given as the source filed them. Rule as the data show it: active = growth inhibition above about 70%; inactive = the rest.
Labels: active, inactive

- Compound: "[N-]=[N+]=Nc1ccccc1Oc1ccccc1"
  Category label: "inactive"
- Compound: "COC1=C(NCC(C)C)C(=O)C(OC)=C(NCC(C)C)C1=O"
  Category label: "inactive"
- Compound: "Cc1ccc(NS(=O)(=O)c2ccc(F)cc2)cc1Cl"
  Category label: "active"
- Compound: "C=CC(=O)OCC(C)(C)[N+](=O)[O-]"
  Category label: "inactive"
- Compound: "CCOC(=O)C(C(=O)/C=C\\c1ccccc1)(C(c1ccccc1)c1ccccc1)C(c1ccccc1)c1ccccc1"
  Category label: "inactive"
- Compound: "CCCNC(=O)C1C(=O)C(=O)N(CCC)C1=O (centres undefined)"
  Category label: "inactive"
- Compound: "Cc1ccc(NC(=O)CCC(CC(=O)C(C)(C)C)=NNC(=O)C(=O)NN)cc1C"
  Category label: "inactive"
- Compound: "Cc1cc(C)c(C2CC(O)C(CO)O2)cc1C (centres undefined)"
  Category label: "inactive"
- Compound: "C=C(C)COc1ccc(C)cc1Br"
  Category label: "inactive"
- Compound: "Oc1ccc2c(c1)CCC2"
  Category label: "inactive"
- Compound: "O=C(O)c1cc(=O)c2[nH]c3ccccc3c2s1"
  Category label: "inactive"
- Compound: "COc1cc(C2c3cc4c(c(OC(=O)c5ccncc5)c3CC3COC(=O)C32)OCO4)cc(OC)c1OC (centres undefined)"
  Category label: "inactive"
- Compound: "CCN(Cc1cccc(S(=O)(=O)O)c1)c1ccc(C(=C2C=CC(=[N+](C)C)C=C2)c2ccc(N(C)C)cc2)c(S(=O)(=O)O)c1"
  Category label: "inactive"
- Compound: "Nc1cc2c(cc1I)-c1ccccc1C2O (centres undefined)"
  Category label: "inactive"
- Compound: "CCCC(=O)Oc1ccc(C(C)(C)C)cc1"
  Category label: "inactive"
- Compound: "Cn1c(=O)c2c(nc3sc4nc5ccccc5nc4n32)n(C)c1=O"
  Category label: "inactive"
- Compound: "COC(=O)CCc1cc(=O)oc2ccc3cc(CC(=O)OC)oc3c12"
  Category label: "inactive"
- Compound: "Cc1cc([N+](=O)[O-])cnc1Cl"
  Category label: "inactive"
- Compound: "CC(=O)N(C)c1ccccc1O"
  Category label: "inactive"
- Compound: "COc1cc(C(=O)Oc2c(C#N)sc3c2c(=O)n(-c2ccccc2)c(=S)n3-c2ccccc2)cc(OC)c1OC"
  Category label: "inactive"
- Compound: "Cc1nc2cnc(N)nc2nc1C"
  Category label: "inactive"
- Compound: "CCCCCC(/C=C/[C@@H]1[C@H]2CC(=O)O[C@H]2C[C@H]1N1CCOCC1)OC1CCCO1 (some centres undefined)"
  Category label: "inactive"
- Compound: "Cc1cc(Cc2c(F)c(F)c(Cc3cc(C)no3)c(F)c2F)on1"
  Category label: "inactive"
- Compound: "CC(C)C1C(O)C23CCC4C(C)(CO)CCCC4(C)C2CC13 (centres undefined)"
  Category label: "inactive"
